src = the RNAGym collection of RNA variant scans (doi:10.7554/elife.80360)

B1: CPEB3 Ribozyme (parent)
chain: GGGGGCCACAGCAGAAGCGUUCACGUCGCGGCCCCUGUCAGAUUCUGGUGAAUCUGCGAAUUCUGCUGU

variants of: B1; assay: self-cleavage, relative activity (ratio to wild type); higher = more cleavage; co-transcriptional
Returns one of yes (1) or no (0); yes (1) when self-cleavage is >= 0.3.

Here's what some known entries look like.
GGGGGCCACAGCAGAAGCGUUCACGUCGCGGCACCUGUCAGAUUCUGCUGAAUCUGCGAAUUCUGCUGU [C33A G48C] | yes (1)
GGGGGCCACAGCAGAAGCGUUCACGUCGCGGCCCCUGUCAGCUUCUGGUGAAUCUGCGAAUUCUGCUCU [A42C G68C] | yes (1)
GGGGGCCACAGCAGAAGCGAUCACGUCGCGGCCCCUGUCAGAUUCUGGUGAAUCUGCAAAUUCUGCUGU [U20A G58A] | no (0)
GGGGGCCACAGCCGAAGCGUUCACGUCGCGGCCCCUGUCAGAUUCUGGUGAAUCUGCGAAUUAUGCUGU [A13C C63A] | yes (1)
GGGGGCCACAGCAGAAUCGGUCACGUCGCGGCCCCUGUCAGAUUCUGGUGAAUCUGCGAAUUCUGCUGU [G17U U20G] | no (0)

Prompt: Would you say GGGGGCCACAGCGGAAGCGUCCACGUCGCGGCCCCUGUCAGAUUCUGGUGAAUCUGCGAAUUCUGCUGU [A13G U21C] shows self-cleavage at minimum 0.3?
Completion: yes (1)

Prompt: Would you say GGGGGCCACAGCAGCAGCGUUCACGUCGCGGCCCCUGUCGGAUUCUGGUGAAUCUGCGAAUUCUGCUGU [A15C A40G] shows self-cleavage at minimum 0.3?
Completion: yes (1)

Prompt: Would you say GGGGGCCACAGCAGAAGCGUUCACGUCGCGGCCCCUGUCAGAUUCUGGUGCAUCUGCGAAUUCUGCUAU [A51C G68A] shows self-cleavage at minimum 0.3?
Completion: yes (1)

Prompt: Would you say GGGGGCCACAGCAGAAGCGUCCACGUCGCGGCCCCUGUCAGAUUCAGGUGAAUCUGCGAAUUCUGCUGU [U21C U46A] shows self-cleavage at minimum 0.3?
Completion: yes (1)

Prompt: Would you say GGGGGCCACAGAGGAAGCGUUCACGUCGCGGCCCCUGUCAGAUUCUGGUGAAUCUGCGAAUUCUGCUGU [C12A A13G] shows self-cleavage at minimum 0.3?
Completion: yes (1)

Prompt: Would you say GGGGGCCACAGCAGAAGCGUUCACGUCGCGGCCCCUCUCAGAUUCUGGUUAAUCUGCGAAUUCUGCUGU [G37C G50U] shows self-cleavage at minimum 0.3?
Completion: no (0)

Prompt: Would you say GGGGGCCACAGCAGAAGCGUUCACGUCGCGGCCCCUGUCAGAUUCUGGUGUAUCUGCGAAUUCUGCGGU [A51U U67G] shows self-cleavage at minimum 0.3?
Completion: yes (1)

Prompt: Would you say GGGGGCCACAGCAGAAGCGUUCACGUCGCGGCCCCUGUCAGAUUCUUGUCAAUCUGCGAAUUCUGCUGU [G47U G50C] shows self-cleavage at minimum 0.3?
Completion: yes (1)

Prompt: Would you say GGGGGCCGCAGCAGAAGCGUUCACGUCGCGGCCCCUGUCAGAUUCUGGUGAAUUUGCGAAUUCUGCUGU [A8G C54U] shows self-cleavage at minimum 0.3?
Completion: yes (1)

Prompt: Would you say GGGGACCACAGCAGAAGCCUUCACGUCGCGGCCCCUGUCAGAUUCUGGUGAAUCUGCGAAUUCUGCUGU [G5A G19C] shows self-cleavage at minimum 0.3?
Completion: no (0)

Prompt: Would you say GGGGGCCACAGCAGAAGCGUUCACGUCGCGGCCCCUGUCAGAUUCUGGUAAAUCUGCGAAUUCUGCUCU [G50A G68C] shows self-cleavage at minimum 0.3?
Completion: yes (1)

Prompt: Would you say GGGGGCCACAGCAGAAGCGUUCACGUCGCGGCCCCUUUCAGAUUCUGGUGAGUCUGCGAAUUCUGCUGU [G37U A52G] shows self-cleavage at minimum 0.3?
Completion: no (0)

Prompt: Would you say GGGGGCCACAGCAGAAGCGUUCACGUCGCGGCCCCUGUCAGAUUCUUGUGAAUUUGCGAAUUCUGCUGU [G47U C54U] shows self-cleavage at minimum 0.3?
Completion: yes (1)

Prompt: Would you say GGGGGCCACAGCACAAGCGUUCACGUCGCGGCACCUGUCAGAUUCUGGUGAAUCUGCGAAUUCUGCUGU [G14C C33A] shows self-cleavage at minimum 0.3?
Completion: yes (1)

Prompt: Would you say GGGGGCCACAGCGGAAGCGUUCACGUCGCGGCCCCUGUCAGAUUCUGGUGAAUCUGCGAACUCUGCUGU [A13G U61C] shows self-cleavage at minimum 0.3?
Completion: yes (1)

Prompt: Would you say GGGGGCCACAGCAGAAGCGUUGACGUCGCGGCCCCUGUCAGAUUCUGGUGAAUCUGCGAAUACUGCUGU [C22G U62A] shows self-cleavage at minimum 0.3?
Completion: no (0)

Prompt: Would you say GGGGGCCACAGCAGGAGCGUUCACGUCGCGGCCCCUGUCAGAUUCUGGUGAAUUUGCGAAUUCUGCUGU [A15G C54U] shows self-cleavage at minimum 0.3?
Completion: yes (1)

Prompt: Would you say GGGGGCCACAGCAGAAGCGUUCACGUCGCGGCCCCUGUCAGAUUCUGGUGAAACUGCCAAUUCUGCUGU [U53A G58C] shows self-cleavage at minimum 0.3?
Completion: yes (1)

Prompt: Would you say GGGGGCCACAGCAGAAGCGGUCACGUCGCGGCCCCUGUCAGAUUCUGGUGAAUCUGCGAAUUCUGCUGU [U20G] shows self-cleavage at minimum 0.3?
Completion: no (0)

Prompt: Would you say GGGGGCCACAGCAGAACCGUUCACGUCGCGGCCCCUGUCAGAUUCUGGUGAAUCUGCGAAUUCUGCUGA [G17C U69A] shows self-cleavage at minimum 0.3?
Completion: no (0)
